Source listed as patent US20260092061A1.

Target: BRD9 (Homo sapiens, UniProt Q9H8M2)
Sequence (Q9H8M2 whole entry): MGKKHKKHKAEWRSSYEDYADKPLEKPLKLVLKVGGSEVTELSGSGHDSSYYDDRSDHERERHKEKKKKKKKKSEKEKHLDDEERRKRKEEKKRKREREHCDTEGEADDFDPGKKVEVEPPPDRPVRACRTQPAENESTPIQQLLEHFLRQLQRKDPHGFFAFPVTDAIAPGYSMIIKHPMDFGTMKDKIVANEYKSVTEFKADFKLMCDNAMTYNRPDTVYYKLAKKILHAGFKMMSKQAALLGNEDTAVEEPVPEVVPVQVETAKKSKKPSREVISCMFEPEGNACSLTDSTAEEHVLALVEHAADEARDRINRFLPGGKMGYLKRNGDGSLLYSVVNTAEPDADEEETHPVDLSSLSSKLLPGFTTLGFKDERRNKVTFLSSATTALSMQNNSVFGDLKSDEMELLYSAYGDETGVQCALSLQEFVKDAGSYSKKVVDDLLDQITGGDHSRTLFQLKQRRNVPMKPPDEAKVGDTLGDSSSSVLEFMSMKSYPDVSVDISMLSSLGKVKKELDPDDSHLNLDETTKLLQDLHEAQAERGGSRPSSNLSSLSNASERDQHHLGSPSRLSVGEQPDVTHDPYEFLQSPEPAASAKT
Assay: Degradation of BRD9 (IF), immunofluorescence in MV4-11 cells, 24 hours (Assay Protocol 2)
Format: cell-based
Design: A suspension of MV4-11 cells (ATCC CRL-9591) was prepared; host or cells: MV4-11
Details: MV4-11, Assay protocol 2; BRD9 degradation; read-out: Dmax
Method: Assay Protocol 2—Degradation of BRD9 (IF) A suspension of MV4-11 cells (ATCC CRL-9591) was prepared in phenol red-free assay media (IMDM Thermo Scientific 21056023+10% FBS ATCC 302025) and cells were seeded at 20,000 cells per well (45 μL) in sterile black poly-d-lysine coated 384 well plates (Greiner 781948). Compounds were prepared at 1000× final concentration in DMSO, diluted 1:100 in assay media, and 5 μL compound was added to each well of the cell plate. […]

{"COMPOUND": "COc1cc(-c2cn(C)c(=O)c(C)c2C)cc(OC)c1CN1CCC(CN(C)c2ccc3c(c2)C(C)N(C(=O)/C(C#N)=C/C(C)(C)C)CC3)CC1 (stereo not drawn) [Compound C46]", "TARGET_UNDER_TEST": "BRD9 (Homo sapiens, UniProt Q9H8M2)", "Dmax": "40 to 70%"}
{"COMPOUND": "COc1cc(-c2cn(C)c(=O)c(C)c2C)cc(OC)c1CN1CCN(C(=O)CCCCOc2ccc3c(c2)C(C)N(C(=O)/C(C#N)=C/c2nccs2)CC3)CC1 (mixture of isomers) [Compound B84]", "TARGET_UNDER_TEST": "BRD9 (Homo sapiens, UniProt Q9H8M2)", "Dmax": "> 75%"}
{"COMPOUND": "CC[C@H]1c2cccc(CN3CCN(Cc4c(OC)cc(-c5cn(C)c(=O)c(C)c5C)cc4OC)C4(CC4)C3)c2CCN1C(=O)/C(C#N)=C/C(C)(C)CF (single isomer, unassigned) [Compound C104]", "TARGET_UNDER_TEST": "BRD9 (Homo sapiens, UniProt Q9H8M2)", "Dmax": "40 to 70%"}
